Reported pKd values for a set of molecules
Target: T1, human EphA4 (Homo sapiens, UniProt P54764)
T1 construct: made in house; not restated for the human SEAP-His protein
T1 sequence (P54764 20-547): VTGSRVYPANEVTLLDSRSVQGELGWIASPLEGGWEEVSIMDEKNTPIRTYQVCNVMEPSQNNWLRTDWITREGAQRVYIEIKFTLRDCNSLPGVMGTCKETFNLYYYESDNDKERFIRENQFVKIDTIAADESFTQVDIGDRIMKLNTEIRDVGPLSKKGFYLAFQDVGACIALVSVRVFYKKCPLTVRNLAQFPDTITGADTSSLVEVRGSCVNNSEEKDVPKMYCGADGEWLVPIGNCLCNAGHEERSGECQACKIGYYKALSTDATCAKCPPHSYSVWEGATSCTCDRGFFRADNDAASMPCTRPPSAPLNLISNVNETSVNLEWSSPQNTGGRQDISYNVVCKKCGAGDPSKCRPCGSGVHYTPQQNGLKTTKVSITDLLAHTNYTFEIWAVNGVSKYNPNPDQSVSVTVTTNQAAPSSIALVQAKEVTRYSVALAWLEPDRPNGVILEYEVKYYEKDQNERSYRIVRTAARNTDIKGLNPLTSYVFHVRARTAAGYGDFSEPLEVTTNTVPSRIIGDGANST
Test: Affinity of humanized antibodies by SPR (Biacore T200)
Assay type: binding
Settings: human EphA4 extracellular region-SEAP-His; KD=kd/ka
By convention, pKd is the negative base-10 log of a molar concentration.

| MOLECULE | pKd |
| --- | --- |
| 141 (antibody, V domains shown, synthetic humanized antibody heavy chain variable region sequence; synthetic humanized antibody light chain variable region sequence) VH: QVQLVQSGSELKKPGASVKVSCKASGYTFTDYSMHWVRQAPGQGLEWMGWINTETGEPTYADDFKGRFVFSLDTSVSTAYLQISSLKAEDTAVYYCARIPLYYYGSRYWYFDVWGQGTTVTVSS VL: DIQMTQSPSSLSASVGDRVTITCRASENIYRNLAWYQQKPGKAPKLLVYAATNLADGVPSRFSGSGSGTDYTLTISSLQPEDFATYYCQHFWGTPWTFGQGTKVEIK | 8.80 |

If you can, please state the reported pKd value of 73 (antibody, V domains shown, synthetic humanized antibody heavy chain variable region sequence; synthetic humanized antibody light chain variable region sequence) VH: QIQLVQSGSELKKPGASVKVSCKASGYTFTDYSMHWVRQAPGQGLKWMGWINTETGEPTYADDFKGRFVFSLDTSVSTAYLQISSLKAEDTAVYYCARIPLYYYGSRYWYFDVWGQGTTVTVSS VL: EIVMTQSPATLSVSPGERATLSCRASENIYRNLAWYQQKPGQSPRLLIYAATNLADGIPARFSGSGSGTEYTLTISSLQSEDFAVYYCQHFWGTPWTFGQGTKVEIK . 9.03
